The measured values listed here are drawn from patent US20260184675A1.

tested on: eggs of Spodoptera litura; assay: Effect on hatching of eggs of Spodoptera litura, egg piece soaking; format: in vivo; settings: Spodoptera litura eggs, 500 ppm, soaked 10 minutes, replicate 1
QUANTITY_KIND: Number of unhatched larvae 4 days after insecticide delivery, Replicate 1
Note: the reply should be a number with no unit written.

Some molecules with recorded Number of unhatched larvae 4 days after insecticide delivery, Replicate 1:
> print(dat)
                                   molecule  reported.value
1  CC[C@H](COc1ccc(Cl)cc1Cl)OS(=O)OCCF (stereo partly drawn) [19-(R,S)]              54
2  CC(C)(COS(=O)OCCF)Oc1ccc(Cl)cc1Cl (stereo not shown) [Compound 10′]              38
3  CC(COS(=O)OCCF)Oc1ccc(Cl)cc1Cl (stereo not shown)              34

Form field: reported Number of unhatched larvae 4 days after insecticide delivery, Replicate 1 of CC[C@H](COS(=O)OCCF)Oc1ccc(Cl)cc1Cl (stereo partly drawn) [19′-(R,S)]
30

Next molecule up: CC(C)(COS(=O)OCCF)Oc1ccc(Cl)cc1Cl (stereo not shown) [S-10′]
46

Record: CC(C)(COS(=O)OCCF)Oc1ccc(Cl)cc1Cl (stereo not shown) [R-10′]
21

Then what about the molecule CC(C)(COc1ccc(Cl)cc1Cl)OS(=O)OCCF (stereo not shown) [Compound S-10] ?
44

Continue with CC[C@@H](COc1ccc(Cl)cc1Cl)OS(=O)OCCF (stereo partly drawn) [19-(S,R)]
48

Subsequent entry: CC(COc1ccc(Cl)cc1Cl)OS(=O)OCCF (stereo not shown)
35

And for CCC(COc1ccc(Cl)cc1Cl)OS(=O)OCCF (stereo not shown) ?
36

What would you report for CCC(COS(=O)OCCF)Oc1ccc(Cl)cc1Cl (stereo not shown) ?
39

Item: CC(C)(COc1ccc(Cl)cc1Cl)OS(=O)OCCF (stereo not shown) [Compound 10]
37

Please give the result for CC(C)(COc1ccc(Cl)cc1Cl)OS(=O)OCCF (stereo not shown) [Compound R-10] too.
27

====

Recorded Number of hatched larvae 5 days after insecticide delivery values for a group of compounds are listed next.
system: eggs of Thrips; assay: Effect on hatching of eggs of Thrips, leaf disc method; format: in vivo; details: 100 ppm, Replicate 3
Description: […]
Answer as a number with no unit attached.

Solved entries (count: 6):
> print(dat)
                                   compound  reported.value
1  CC[C@@H](COc1ccc(Cl)cc1Cl)OS(=O)OCCF (stereo partly drawn) [19-(S,R)]               0
2  CCC(COc1ccc(Cl)cc1Cl)OS(=O)OCCF (stereo not shown)               0
3  CC(C)(COc1ccc(Cl)cc1Cl)OS(=O)OCCF (stereo not shown) [Compound S-10]               0
4  CC(COS(=O)OCCF)Oc1ccc(Cl)cc1Cl (stereo not shown)               0
5  CC(COc1ccc(Cl)cc1Cl)OS(=O)OCCF (stereo not shown)               1
6  CC(C)(COS(=O)OCCF)Oc1ccc(Cl)cc1Cl (stereo not shown) [Compound 10′]               0

Number of hatched larvae 5 days after insecticide delivery lookup needed for CCC(COS(=O)OCCF)Oc1ccc(Cl)cc1Cl (stereo not shown) [Compound 19′] , thanks.
0

Also check CC(C)(COS(=O)OCCF)Oc1ccc(Cl)cc1Cl (stereo not shown) [R-10′]
19

Field entry: CC(C)(COc1ccc(Cl)cc1Cl)OS(=O)OCCF (stereo not shown) [Compound 10]
0

Next record, please: CC[C@H](COc1ccc(Cl)cc1Cl)OS(=O)OCCF (stereo partly drawn) [19-(R,S)]
0
